system: 786-0 renal; assay: NCI-60 one-dose screen, 48 h; settings: 10 µM unless noted
About 83,000 compounds went through this panel and 20% of them were active in at least one assay; those are over-represented in the sample as a whole. Active and inactive are the calls of the source. How the source made its calls: active means growth percent below 10; inactive means the rest.
The reply should name one outcome from active, inactive

CCN1C(=O)N(CC)C2C1NN=c1s/c(=C\c3cnc(C)n3C)c(=O)n12 (stereo not drawn) = inactive
CCNC(=O)Oc1ccc(/C(=C(/C)Cc2ccc(OC)cc2)c2ccc(OCCN3CCCCC3)cc2)cc1 = inactive
Cc1ccc(C)c(/C=C2\CN(C(=O)OC(C)(C)C)C/C(=C\c3cc(C)ccc3C)C2=O)c1 = inactive
COc1cc(OC)c(/C=C/C(=O)c2c(O)cc(OC)c(C3CCN(C)CC3)c2OC)c(OC)c1 = active
COc1ccc(Oc2nc(Nc3ccc(N4CCOCC4)cc3)ncc2NC(=O)Nc2cc(OC)cc(OC)c2)cc1 = inactive

Give the logged outcome of this assay for the following compound: "C=C(C)[C@@H]1CC[C@]2(C(N)=O)CC[C@]3(C)[C@H](CC[C@@H]4[C@@]5(C)CC[C@H](OCCC#N)C(C)(C)[C@@H]5CC[C@]43C)[C@@H]12" inactive

Recorded test outcome, item "O=C1/C(=C/c2ccccn2)NC(=S)N1c1ccccc1Cl" inactive

Tell me the assay call for "CC/C(Cc1ccccc1)=C(\c1ccc(OCCCN(C)C)cc1)c1ccc(OC(=O)NCc2ccccc2)cc1" please. inactive

Record lookup: outcome of this test for "COc1ccc(/C=C/C(=O)c2cc(OC)c(OC)c(OC)c2)cc1OCC(=O)Nc1nc2ccc(OC(F)(F)F)cc2s1" ? inactive

Hi, sorry to bother you, what did the test record for "CN1CCN(C(=O)C(C)(C)c2ccc(C(=O)Nc3cn4cc(-c5ccncc5)ccc4n3)cc2)CC1" ? active
